measurement-protocol: Pharmacokinetics in rats
Type: in vivo
condition-set: rat, plasma, iv, 1 mg/kg, rats, IV 1 mg/kg, Mean
readout-label: Cmax (ng/mL)
// units = ng/mL; emit number, no label

Measured Cmax, Nc1nc(N[C@H]2C[C@@H]3CC[C@H]2C3)sc1C(=O)c1ccccc1[N+](=O)[O-] (relative stereo) : 635

----------
measurement-protocol: Pharmacokinetics in mice
Assay type: in vivo
condition-set: mouse, plasma, IV - 1mg/kg
readout-label: clearance (mL/min)
Express your answer in mL/min, writing the number without its unit.

The compound listed as Nc1nc(N[C@H]2C[C@@H]3CC[C@H]2C3)sc1C(=O)c1ccccc1[N+](=O)[O-] (relative stereo) has a reported clearance of 3.67

----------
measurement-target: CDK18/cyclin Y (PCTK3) (Homo sapiens, UniProt Q07002)
Sequence (Q07002 whole entry): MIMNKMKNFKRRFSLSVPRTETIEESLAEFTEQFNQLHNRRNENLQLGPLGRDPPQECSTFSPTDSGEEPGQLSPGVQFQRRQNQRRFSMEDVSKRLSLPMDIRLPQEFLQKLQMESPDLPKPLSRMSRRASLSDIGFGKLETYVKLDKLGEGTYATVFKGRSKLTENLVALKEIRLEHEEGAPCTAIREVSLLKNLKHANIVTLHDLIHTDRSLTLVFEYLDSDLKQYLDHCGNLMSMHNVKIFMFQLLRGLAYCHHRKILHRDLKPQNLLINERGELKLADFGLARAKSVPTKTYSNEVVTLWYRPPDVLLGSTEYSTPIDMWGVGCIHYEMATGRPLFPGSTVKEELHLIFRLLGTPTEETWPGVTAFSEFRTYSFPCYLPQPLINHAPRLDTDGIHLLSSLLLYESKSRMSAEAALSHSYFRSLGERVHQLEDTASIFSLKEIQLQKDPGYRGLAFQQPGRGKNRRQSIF
Sequence (Q8ND76 whole entry partner): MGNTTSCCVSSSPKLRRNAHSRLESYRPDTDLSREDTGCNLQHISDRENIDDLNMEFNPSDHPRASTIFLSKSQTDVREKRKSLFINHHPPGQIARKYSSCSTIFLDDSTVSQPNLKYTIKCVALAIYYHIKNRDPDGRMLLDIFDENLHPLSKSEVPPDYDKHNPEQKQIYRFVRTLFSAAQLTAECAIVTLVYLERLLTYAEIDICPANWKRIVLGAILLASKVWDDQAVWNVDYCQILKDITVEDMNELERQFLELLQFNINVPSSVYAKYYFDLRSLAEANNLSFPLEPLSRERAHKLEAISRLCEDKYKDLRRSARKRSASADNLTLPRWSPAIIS
measurement-protocol: CDK enzymatic assay
condition-set: Fig. 1A
Procedure: CDK enzymatic assays were performed by Reaction Biology Corp. (Malvern, PA), using 10 µM ATP for determining MC180295 IC50 values for each CDK family member for which assays were available. Kinase enzymatic assays were also performed by Nanosyn (Santa Clara, CA), using microfluidic technology and MC180295 IC50 curves against 10 CDKs. Selectivity against CDK9 was confirmed for the enantiomers at Reaction Biology Corp. (Malvern, PA).
readout-label: IC50 (nM)
Express your answer in nM, writing the number without its unit.

The recorded IC50 with CDK18/cyclin Y (PCTK3) (Homo sapiens, UniProt Q07002) for Nc1nc(N[C@H]2C[C@@H]3CC[C@H]2C3)sc1C(=O)c1ccccc1[N+](=O)[O-] (relative stereo) [MC180295] was 1060

----------
Tested on: 451LU
measurement-protocol: Growth inhibition (cell counting, day 5)
Assay type: cell-based
condition-set: Melanoma
readout-label: pIC50
Hey, just a heads up that pIC50 is the negative log base 10 of the concentration in molar.

Sample Nc1nc(N[C@H]2C[C@@H]3CC[C@H]2C3)sc1C(=O)c1ccccc1[N+](=O)[O-] (relative stereo) [MC180295] , system: 451LU. Its pIC50 is 6.96

----------
measurement-protocol: Pharmacokinetics in rats
Type: in vivo
condition-set: rat, plasma, iv, 1 mg/kg, rats, IV 1 mg/kg, Mean
readout-label: clearance (mL/min)
Number in mL/min, nothing else.

The recorded clearance for Nc1nc(N[C@H]2C[C@@H]3CC[C@H]2C3)sc1C(=O)c1ccccc1[N+](=O)[O-] (relative stereo) is 5.2

----------
measurement-protocol: Liver microsome stability assay
Assay type: in vitro ADME, human
condition-set: both sexes, pooled liver microsomes, pH 7.4; Human (mixed gender) liver microsomes, 1 µM
Field: half-life at 1 µM. Provide a value for each of the compounds that follow.
Write your answer as a measured quantity: the number, then the unit.

Just so you know, measured half-life at 1 µM for "Nc1nc(N[C@H]2C[C@@H]3CC[C@H]2C3)sc1C(=O)c1ccccc1[N+](=O)[O-]" came out at 21.1 min

half-life at 1 µM in this record for "Nc1nc(N[C@@H]2C[C@H]3CC[C@@H]2C3)sc1C(=O)c1ccccc1[N+](=O)[O-]" : 12.2 min

----------
System: MOLM-13
measurement-protocol: Growth inhibition (cell counting, day 5)
Assay type: cell-based
condition-set: Homo sapiens, Leukemia
readout-label: IC50 (nM)
Only the number, expressed in nM, is required.

The measured IC50 associated with Nc1nc(N[C@H]2C[C@@H]3CC[C@H]2C3)sc1C(=O)c1ccccc1[N+](=O)[O-] (relative stereo) [MC180295] reads 44
